Quick reference for pKd among some sequences
Target: HLA-A*33:01
Experiment: IEDB peptide-MHC binding, purified MHC/competitive/radioactivity; filed as Kd, often an IC50 or EC50 that approximates it; bounds were set here for any values at or beyond the usual limits of such assays
Details: source organism: SARS coronavirus Tor2
pKd: −log10 of the molar value.

In [3]: df
Out[3]:
   entry_sequence  reported_result
0       QLFKPLTKK           ≤ 4.11
1       VFGSTMNNK           ≤ 4.36
2       VTFQGKFKK             5.07
3       MQGAVDINR           ≤ 4.43
4      FLAVFQSATK           ≤ 4.65

Summary line: `SMQGAVDINR` , HLA-A*33:01, reported pKd = 6.33
